The reported numbers originate from patent US20230014445A1.

- SYSTEM: human full length PIK3KA H1047R mutant (p110α/p85α complex) (Homo sapiens, UniProt P42336, H1047R)
- Construct: Recombinant, catalytically active human full length PIK3KA Wild-type and H1047R mutant were purchased; 6xHis (N); purchased EMD Millipore Sigma 14-792M
- Sequence (P42336 whole entry H1047R): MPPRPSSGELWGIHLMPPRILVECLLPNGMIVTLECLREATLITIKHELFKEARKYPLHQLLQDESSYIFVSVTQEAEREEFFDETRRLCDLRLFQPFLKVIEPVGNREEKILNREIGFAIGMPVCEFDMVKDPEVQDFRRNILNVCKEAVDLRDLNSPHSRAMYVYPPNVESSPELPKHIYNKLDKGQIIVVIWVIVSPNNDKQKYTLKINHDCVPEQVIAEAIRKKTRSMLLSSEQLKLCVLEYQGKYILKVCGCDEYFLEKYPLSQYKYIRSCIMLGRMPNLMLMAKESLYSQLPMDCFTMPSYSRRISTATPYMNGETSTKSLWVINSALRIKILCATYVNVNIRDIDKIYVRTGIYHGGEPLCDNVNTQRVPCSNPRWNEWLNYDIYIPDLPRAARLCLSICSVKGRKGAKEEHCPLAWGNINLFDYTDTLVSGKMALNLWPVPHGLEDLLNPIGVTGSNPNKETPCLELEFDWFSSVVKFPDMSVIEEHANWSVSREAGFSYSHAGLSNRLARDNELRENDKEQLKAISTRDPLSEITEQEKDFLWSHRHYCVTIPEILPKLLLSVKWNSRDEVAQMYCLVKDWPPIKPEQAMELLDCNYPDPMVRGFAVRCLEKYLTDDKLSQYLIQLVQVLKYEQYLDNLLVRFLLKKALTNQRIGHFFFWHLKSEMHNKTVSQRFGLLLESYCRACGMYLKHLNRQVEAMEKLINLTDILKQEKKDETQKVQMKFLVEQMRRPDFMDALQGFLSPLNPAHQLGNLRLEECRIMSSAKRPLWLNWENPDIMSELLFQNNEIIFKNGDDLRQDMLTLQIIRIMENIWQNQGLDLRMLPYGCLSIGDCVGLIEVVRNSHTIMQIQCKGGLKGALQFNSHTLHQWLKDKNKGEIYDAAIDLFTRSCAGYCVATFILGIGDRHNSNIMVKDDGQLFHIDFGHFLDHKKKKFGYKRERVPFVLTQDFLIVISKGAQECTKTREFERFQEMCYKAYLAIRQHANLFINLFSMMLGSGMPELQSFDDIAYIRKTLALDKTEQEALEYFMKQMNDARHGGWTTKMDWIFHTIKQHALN
- Sequence (P27986 whole entry partner): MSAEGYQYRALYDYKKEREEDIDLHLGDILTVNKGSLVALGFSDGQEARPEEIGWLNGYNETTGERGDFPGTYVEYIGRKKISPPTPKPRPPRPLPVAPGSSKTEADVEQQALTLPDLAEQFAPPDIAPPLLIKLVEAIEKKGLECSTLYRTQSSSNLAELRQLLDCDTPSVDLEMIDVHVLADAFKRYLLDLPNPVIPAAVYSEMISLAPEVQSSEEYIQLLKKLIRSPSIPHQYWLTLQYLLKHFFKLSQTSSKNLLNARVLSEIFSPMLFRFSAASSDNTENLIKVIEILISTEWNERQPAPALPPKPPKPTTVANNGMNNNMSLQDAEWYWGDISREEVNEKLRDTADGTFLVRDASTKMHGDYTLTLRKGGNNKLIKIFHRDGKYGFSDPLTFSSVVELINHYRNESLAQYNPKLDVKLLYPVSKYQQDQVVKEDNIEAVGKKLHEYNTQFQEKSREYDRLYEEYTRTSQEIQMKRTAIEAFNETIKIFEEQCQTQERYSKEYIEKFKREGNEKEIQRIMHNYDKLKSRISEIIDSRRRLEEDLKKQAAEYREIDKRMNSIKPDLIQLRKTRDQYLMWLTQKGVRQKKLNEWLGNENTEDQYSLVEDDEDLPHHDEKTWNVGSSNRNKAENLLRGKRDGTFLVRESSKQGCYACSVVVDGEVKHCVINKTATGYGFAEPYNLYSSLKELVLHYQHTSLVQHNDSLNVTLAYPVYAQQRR
- METHOD DESCRIPTION: PI3K-Alpha Kinase (PIK3CA) biochemical activity, H1047R mutant (ADP-Glo)
- EXPERIMENTAL SETUP: Soy PI lipid substrate, 20 uM ATP
pIC50: −log10 of the molar value.
Field: pIC50. Provide a value for each of the compounds that follow.

Some compounds with known pIC50 results, for comparison:
COMPOUND	pIC50
CC(Nc1ccccc1C(=O)O)c1cc(C(F)(F)F)cc2c(=O)cc(-c3ccccn3)oc12 (single isomer, unassigned; isomer 1)	> 6.30
Cc1cc(C(C)Nc2ccccc2C(=O)O)c2oc(-c3ncccn3)c(C)c(=O)c2c1 (single isomer, unassigned; isomer 1)	> 6.30
Cc1cc(C(C)Nc2ccccc2C(=O)O)c2oc(-c3cccnc3)c(C)c(=O)c2c1 (single isomer, unassigned; isomer 1)	> 6.30
Cc1cc(C(C)Nc2ccccc2C(=O)O)c2oc(-c3cnn(-c4cccnc4)c3)cc(=O)c2c1 (single isomer, unassigned; isomer 2) [Example 50]	> 6.30
Cc1cc(C(C)Nc2cccc(F)c2C(=O)O)c2oc(-c3ccccn3)cc(=O)c2c1 (single isomer, unassigned; isomer 1) [Example 110]	> 6.30
Cc1cc(C(C)Nc2ccccc2C(=O)O)c2oc(-c3ccc(C(F)(F)F)nc3)cc(=O)c2c1 (single isomer, unassigned; isomer 1) [Example 37]	< 5.00
Cc1cc(C(C)Nc2ccc(Cl)c(F)c2C(=O)O)c2oc(-c3ccccn3)cc(=O)c2c1 (single isomer, unassigned; isomer 1)	> 6.30
Cc1cc(C(C)Nc2cccc(F)c2C(=O)O)c2oc(-c3ccccn3)cc(=O)c2c1 (stereo not shown) [Example 100]	> 6.30
CC(Nc1ccc(Cl)nc1C(=O)O)c1cc(C(F)(F)F)cc2c(=O)cc(-c3ccccn3)oc12 (single isomer, unassigned; isomer 1)	> 6.30
Cc1cc(C(C)Nc2ccccc2C(=O)O)c2oc(-c3cnc(OC(C)C)nc3)cc(=O)c2c1 (single isomer, unassigned; isomer 2) [Example 42]	> 6.30

Batch request: pIC50 for each of the following compounds.
1. Cc1cc(C(C)Nc2cccc(F)c2C(=O)O)c2oc(-c3ccccn3)cc(=O)c2c1 (single isomer, unassigned; isomer 2) [Example 111]
2. Cc1cc(C(C)Nc2ccccc2C(=O)O)c2oc(-c3cncc(C#N)c3)c(C)c(=O)c2c1 (single isomer, unassigned)

1: 5.30 to 6.00; 2: > 6.30

Batch request: pIC50 for each of the following compounds.
1. Cc1cc(C(C)Nc2cccc(F)c2C(=O)O)c2oc(-c3cnn(-c4ccc(C#N)cc4)c3)cc(=O)c2c1 (single isomer, unassigned; isomer 1) [Example 112]
2. COc1ccc(-n2cc(-c3cc(=O)c4cc(C)cc(C(C)Nc5ccccc5C(=O)O)c4o3)cn2)cc1C#N (single isomer, unassigned)
3. Cc1cc(C(C)Nc2ccc(C(F)(F)F)cc2C(=O)O)c2oc(-c3cccnc3)c(C)c(=O)c2c1 (single isomer, unassigned; isomer 1)
4. Cc1cc(C(C)Nc2ccc(F)c(F)c2C(=O)O)c2oc(-c3cnn(-c4ccc(C#N)cc4)c3)cc(=O)c2c1 (single isomer, unassigned; isomer 1) [Example 114]
5. COc1cccc(-c2cc(=O)c3cc(C)cc(C(C)Nc4ccccc4C(=O)O)c3o2)n1 (single isomer, unassigned; isomer 2) [Example 22]

5.00 to 5.30
> 6.30
> 6.30
5.30 to 6.00
> 6.30

Batch request: pIC50 for each of the following compounds.
1. COc1ccc(-n2cc(-c3cc(=O)c4cc(C)cc(C(C)Nc5ccccc5C(=O)O)c4o3)cn2)cc1F (single isomer, unassigned)
2. Cc1cc(C(C)Nc2ccccc2C(=O)O)c2oc(-c3cnn(C(F)F)c3)cc(=O)c2c1 (single isomer, unassigned)

> 6.30
> 6.30

###

- SYSTEM: PI3K-α (PIK3CA) in MDA-MB-453 cells (Homo sapiens, UniProt P42336)
- Sequence (P42336 whole entry): as the sequence (P42336 whole entry H1047R) above, with R1047H counted along it
- Sequence (P27986 2-724, further chain): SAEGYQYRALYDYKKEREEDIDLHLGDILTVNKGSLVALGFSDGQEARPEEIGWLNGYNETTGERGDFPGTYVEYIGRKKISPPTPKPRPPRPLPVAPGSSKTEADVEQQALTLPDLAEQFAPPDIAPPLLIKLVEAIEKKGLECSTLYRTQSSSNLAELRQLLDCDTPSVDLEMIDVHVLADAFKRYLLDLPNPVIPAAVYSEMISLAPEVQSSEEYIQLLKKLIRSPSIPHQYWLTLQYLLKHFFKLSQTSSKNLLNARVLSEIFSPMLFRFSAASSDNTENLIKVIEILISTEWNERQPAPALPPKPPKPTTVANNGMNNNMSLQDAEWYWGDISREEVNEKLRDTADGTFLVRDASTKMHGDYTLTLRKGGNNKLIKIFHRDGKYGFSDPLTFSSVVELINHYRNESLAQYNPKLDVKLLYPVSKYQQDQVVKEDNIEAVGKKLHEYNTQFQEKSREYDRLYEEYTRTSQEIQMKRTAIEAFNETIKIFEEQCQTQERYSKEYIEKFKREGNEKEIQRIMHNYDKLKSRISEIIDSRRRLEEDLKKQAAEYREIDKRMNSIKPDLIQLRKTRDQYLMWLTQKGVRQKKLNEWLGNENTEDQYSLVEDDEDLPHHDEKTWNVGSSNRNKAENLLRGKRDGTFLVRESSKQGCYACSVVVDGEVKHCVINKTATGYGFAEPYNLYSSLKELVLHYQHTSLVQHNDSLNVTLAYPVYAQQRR
- METHOD DESCRIPTION: PI3K-Alpha Kinase (PIK3CA) activity in vitro cell based assay (AlphaLisa SureFire)
- EXPERIMENTAL SETUP: 0% FBS, 3 hours treatment, read-out: PI3K-α (PIK3CA) in vitro cell based assay IC50
Field: IC50. Provide a value for each of the compounds that follow.

> print(dat)
                                   compound  parameter.measured   result
1  Cc1cc(C(C)Nc2ccc(Cl)cc2C(=O)O)c2oc(-c3cccnc3)c(C)c(=O)c2c1 (single isomer, unassigned; isomer 1) [Example 132]                IC50  < 50 nM

Batch request: IC50 for each of the following compounds.
1. Cc1cc(C(C)Nc2cccc(F)c2C(=O)O)c2oc(-c3ccccn3)cc(=O)c2c1 (single isomer, unassigned; isomer 1) [Example 110]
2. Cc1cc(C(C)Nc2cccc(F)c2C(=O)O)c2oc(-c3ccccn3)c(C)c(=O)c2c1 (single isomer, unassigned; isomer 1) [Example 140]
3. Cc1cc(C(C)Nc2ccccc2C(=O)O)c2oc(-c3nccnc3C)cc(=O)c2c1 (single isomer, unassigned; isomer 2) [Example 29]

1. 100 to 500 nM
2. 50 to 100 nM
3. 100 to 500 nM

###

- SYSTEM: human full length PIK3KA Wild-type (p110α/p85α complex) (Homo sapiens, UniProt P42336)
- Construct: Recombinant, catalytically active human full length PIK3KA Wild-type and H1047R mutant were purchased; 6xHis (N); purchased EMD Millipore Sigma 14-602M
- METHOD DESCRIPTION: PI3K-Alpha Kinase (PIK3CA) biochemical activity, wild-type (ADP-Glo)
- EXPERIMENTAL SETUP: Soy PI lipid substrate, 20 uM ATP
pIC50: −log10 of the molar value.
Field: pIC50. Provide a value for each of the compounds that follow.

Some compounds with known pIC50 results, for comparison:
COMPOUND	pIC50
Cc1cc(C(C)Nc2ccc(C)nc2C(=O)O)c2oc(-c3cncc(F)c3)c(C)c(=O)c2c1 (single isomer, unassigned; isomer 1)	5.30 to 6.00
Cc1cc(C(C)Nc2ccccc2C(=O)O)c2oc(-c3ccc(C4(C#N)CC4)nc3)c(C)c(=O)c2c1 (single isomer, unassigned)	5.30 to 6.00
COc1cccc(-n2cc(-c3cc(=O)c4cc(C)cc(C(C)Nc5ccccc5C(=O)O)c4o3)cn2)c1 (single isomer, unassigned)	5.30 to 6.00
Cc1cc(C(C)Nc2ccccc2C(=O)O)c2oc(-c3cnn(-c4ccc(C(F)(F)F)cc4)c3)cc(=O)c2c1 (single isomer, unassigned)	5.00 to 5.30
Cc1cc(C(C)Nc2ccc(Cl)c(F)c2C(=O)O)c2oc(-c3ccccn3)cc(=O)c2c1 (single isomer, unassigned; isomer 1)	5.00 to 5.30

Batch request: pIC50 for each of the following compounds.
1. Cc1cc(C(C)Nc2ccccc2C(=O)O)c2oc(-c3cn(-c4ccc(C#N)cc4)nc3C)cc(=O)c2c1 (single isomer, unassigned)
2. Cc1cc(C(C)Nc2ccccc2C(=O)O)c2oc(-c3cnn(-c4ccc(C#N)cc4)c3)c(C)c(=O)c2c1 (single isomer, unassigned)
3. CC(Nc1ccc(Cl)nc1C(=O)O)c1cc(C(F)(F)F)cc2c(=O)cc(-c3ccccn3)oc12 (single isomer, unassigned; isomer 1)
4. Cc1cc(C(C)Nc2ccc(F)c(F)c2C(=O)O)c2oc(-c3cnn(-c4ccc(C#N)cc4)c3)cc(=O)c2c1 (single isomer, unassigned; isomer 1) [Example 114]
5. Cc1cc(C(C)Nc2ccccc2C(=O)O)c2oc(-c3ccc(F)nc3)cc(=O)c2c1 (centres unmarked) [Example 9]
6. Cc1cc(C(C)Nc2ccccc2C(=O)O)c2oc(-c3cnn(-c4cccnc4)c3)cc(=O)c2c1 (centres unmarked) [Example 48]
7. Cc1cc(C(C)Nc2ccccc2C(=O)O)c2oc(-c3cnn(C(F)F)c3)cc(=O)c2c1 (single isomer, unassigned)

["5.00 to 5.30", "6.00 to 6.30", "5.00 to 5.30", "5.00 to 5.30", "5.00 to 5.30", "5.00 to 5.30", "5.30 to 6.00"]

Batch request: pIC50 for each of the following compounds.
1. COc1cccc(-c2cc(=O)c3cc(C)cc(C(C)Nc4ccccc4C(=O)O)c3o2)n1 (centres unmarked) [Example 11]
2. Cc1cc(C(C)Nc2ccccc2C(=O)O)c2oc(-c3ccc(C(F)(F)F)nc3)cc(=O)c2c1 (single isomer, unassigned; isomer 1) [Example 37]

["6.00 to 6.30", "< 5.00"]

###

- SYSTEM: human full length PIK3KA Wild-type (p110α/p85α complex) (Homo sapiens, UniProt P42336)
- Construct: Recombinant, catalytically active human full length PIK3KA Wild-type and H1047R mutant were purchased; 6xHis (N); purchased EMD Millipore Sigma 14-602M
- METHOD DESCRIPTION: PI3K-Alpha Kinase (PIK3CA) biochemical activity, wild-type (ADP-Glo)
- EXPERIMENTAL SETUP: Soy PI lipid substrate, 20 uM ATP
PARAMETER MEASURED: IC50

> print(dat)
                                   compound       result
1  Cc1cc(C(C)Nc2ccccc2C(=O)O)c2oc(-c3cnn(-c4ccccc4)c3)cc(=O)c2c1 (single isomer, unassigned)   5 to 10 µM
2  COc1cccc(-n2cc(-c3oc4c(C(C)Nc5ccccc5C(=O)O)cc(C)cc4c(=O)c3C)cn2)c1 (single isomer, unassigned)  0.5 to 1 µM
3  COc1ccnc(-c2cc(=O)c3cc(C)cc(C(C)Nc4ccccc4C(=O)O)c3o2)c1 (single isomer, unassigned)   5 to 10 µM
4  Cc1cc(C(C)Nc2ccccc2C(=O)O)c2oc(-c3ccccn3)cc(=O)c2c1 (single isomer, unassigned; isomer 1)    1 to 5 µM
5  Cc1cc(C(C)Nc2ccccc2C(=O)O)c2oc(-c3cnc(C)nc3)cc(=O)c2c1 (centres unmarked)      > 10 µM
6  Cc1cc(C(C)Nc2ccccc2C(=O)O)c2oc(-c3ccc(F)cn3)cc(=O)c2c1 (centres unmarked)   5 to 10 µM

Batch request: IC50 for each of the following compounds.
1. Cc1cc(C(C)Nc2ccccc2C(=O)O)c2oc(-c3cc(C#N)ccn3)cc(=O)c2c1 (centres unmarked)
2. COc1ccc(-n2cc(-c3cc(=O)c4cc(C)cc(C(C)Nc5ccccc5C(=O)O)c4o3)cn2)cn1 (single isomer, unassigned)
3. Cc1cc(C(C)Nc2ccccc2C(=O)O)c2oc(-c3cn(-c4ccc(C#N)cc4)cn3)cc(=O)c2c1 (single isomer, unassigned)
4. Cc1cc(C(C)Nc2cccnc2C(=O)O)c2oc(-c3cccnc3)c(C)c(=O)c2c1 (single isomer, unassigned; isomer 1)
5. COc1ccc(-n2cc(-c3cc(=O)c4cc(C)cc(C(C)Nc5ccccc5C(=O)O)c4o3)cn2)cc1 (single isomer, unassigned)
6. Cc1c(-c2ccccn2)oc2c(C(C)Nc3ccccc3C(=O)O)cc(F)cc2c1=O (single isomer, unassigned)

["1 to 5 µM", "5 to 10 µM", "5 to 10 µM", "5 to 10 µM", "1 to 5 µM", "5 to 10 µM"]

Batch request: IC50 for each of the following compounds.
1. Cc1cc(C(C)Nc2ccccc2C(=O)O)c2oc(-c3cncc(F)c3)cc(=O)c2c1 (single isomer, unassigned)
2. Cc1cc(C(C)Nc2ccccc2C(=O)O)c2oc(-c3cnn(-c4cccnc4)c3)c(C)c(=O)c2c1 (single isomer, unassigned)
3. Cc1cc(C(C)Nc2ccc(F)c(F)c2C(=O)O)c2oc(-c3cnn(-c4ccc(C#N)cc4)c3)cc(=O)c2c1 (single isomer, unassigned) [Example 95]

1: 1 to 5 µM; 2: 1 to 5 µM; 3: > 10 µM

Batch request: IC50 for each of the following compounds.
1. COc1cc(-n2cc(-c3cc(=O)c4cc(C)cc(C(C)Nc5ccccc5C(=O)O)c4o3)cn2)ccc1C#N (single isomer, unassigned)
2. Cc1cc(C(C)Nc2cccc(F)c2C(=O)O)c2oc(-c3ccccn3)cc(=O)c2c1 (centres unmarked) [Example 100]

1: 1 to 5 µM; 2: > 10 µM
